- SYSTEM: HLA-C*14:02 (Homo sapiens, UniProt P10321, A176E/A330V/A35S/A97T/C350S/D114A/D33S/L171W/L180R/L218V/M285V/M309V/M331V/P208H/Q277E/Q291P/R121W/R243W/S123F/S297R/S48A/T329A/T363A/V319A)
- ASSAY_NOTES: HLA stabilization assay on RMA-S-C1402 cells
- Format: cell-based
- COND: 100 μM peptide, 26°C 1 h then 37°C 3 h, MAb DT-9 staining, flow cytometry, triplicate assays
MEASURED_QUANTITY: binding to HLA-C*14:02 (stabilization of surface HLA expression)

[[record]]
ordered_residues = "VYYDPSKDL [Pol VYL9, HIV-1 NL4-3 Pol 472–480 peptide …]"
assay_value = "low"

[[record]]
ordered_residues = "FFREDLAF [Pol FF8, HIV-1 NL4-3 Pol 1–8 peptide FFREDLAF]"
assay_value = "low"


---

- SYSTEM: HLA-C*14:03 (Homo sapiens, UniProt P10321, A176E/A330V/A35S/A97T/C350S/D114A/D33S/L171W/L180R/L218V/M285V/M309V/M331V/P208H/Q277E/Q291P/R121W/R243W/R45H/S123F/S297R/S48A/T329A/T363A/V319A)
- ASSAY_NOTES: HLA stabilization assay on RMA-S-C1403 cells
- Assay type: cell-based
- COND: 100 μM peptide, 26°C 1 h then 37°C 3 h, MAb DT-9 staining, flow cytometry, triplicate assays
- Procedure: We next sought to confirm the HLA-C*14:02/C*14:03 restriction of the HIV-1 peptides identified by LC-MS/MS. First, we tested their ability to bind to HLA-C*14:02 or HLA-C*14:03 using HLA stabilization assays. […] Peptide binding was determined by evaluating whether HLA-I expression was stabilized in the presence of 100 μM peptide. FIG 2 HLA-C*14:02/14:03 binding of HIV-1 peptides eluted from NL4-3-infected .221-C1402 and .221-C1403 cells as assessed by HLA stabilization assay using RMA-S cell lines. […]
MEASURED_QUANTITY: binding to HLA-C*14:03 (stabilization of surface HLA expression)

[[record]]
ordered_residues = "VYYDPSKDL [Pol VYL9, HIV-1 NL4-3 Pol 472–480 peptide …]"
assay_value = "low"

[[record]]
ordered_residues = "FFREDLAF [Pol FF8, HIV-1 NL4-3 Pol 1–8 peptide FFREDLAF]"
assay_value = "low"

